- Tested on: Human alphaherpesvirus 1
- run_description: Antiviral activity against HSV-1 infected in African green monkey Vero cells assessed as inhibition of viral replication incubated for 1 hr followed by washing with PBS and subsequent treatment with compound for 24 hrs by plaque reduction assay
- Assay type: functional, organism-based
- experimental_conditions: Human alphaherpesvirus 1, Vero
Each entry below carries its recorded pEC50.
The quantity pEC50 is defined as the negative base-10 logarithm of the molar concentration.

Sample records with pEC50:
1) Cc1cc(C2CCCCCC2)n(O)c(=O)c1 7.22
2) Cc1cc(Cc2ccc(-c3ccccc3)cc2)n(O)c(=O)c1 6.68
3) Cc1cc(Cc2ccc(Cl)cc2)n(O)c(=O)c1 6.80
4) Cc1cc(C2CCCCC2)n(O)c(=O)c1 6.57

// switching to the query molecule
I'd like to know its pEC50. The molecule in question is O=c1c2ccccc2cc(CC2CCCCC2)n1O 6.62

====

- run_description: Cytotoxicity against human HepDES19 cells assessed as reduction in cell viability incubated for 72 hrs by MTS assay
- Assay type: toxicity, cell-based
- experimental_conditions: hepdes19, 72 h
Could you please mark Y for values of CC50 below 20 µM and N for values at or above it?

compound	answer_label
COc1cccc(Cc2cc(C)cc(=O)n2O)c1	N

Let's switch to this compound now.
# check: CC50 < 20 µM for Cc1cc(C2CCCCC2)n(O)c(=O)c1 [CICLOPIROX] Y

====

- run_description: Cytotoxicity against human HepDES19 cells assessed as reduction in cell viability incubated for 72 hrs by MTS assay
- Format: toxicity, cell-based
- experimental_conditions: hepdes19, 72 h
metric_name: CC50 (µM)
Answer in µM, number only, no unit symbol.

1. O=c1cc(-c2ccccc2)cc(C2CCCCC2)n1O 20
2. Cc1cc(Cc2cccc3ccccc23)n(O)c(=O)c1 25
3. Cc1cc(Cc2ccc(OCc3ccccc3)cc2)n(O)c(=O)c1 19
4. O=c1cc(-c2ccccc2)cc(CC2CCCCC2)n1O 20
5. Cc1cc(Cc2cccc(OCc3ccccc3)c2)n(O)c(=O)c1 22

Which value of CC50 has been reported for Cc1cc(Cc2ccccc2)n(O)c(=O)c1 in the records? 42

====

# Papp values compiled below
- run_description: Apparent permeability of the compound across apical to basolateral side in human Caco-2 cells at 10 uM incubated for 2 hrs
- Type: ADME, cell-based
- experimental_conditions: caco-2, 2 h

1. O=c1cc(-c2ccccc2)cc(C2CCCCC2)n1O 4.33 10^-6 cm/s

For the compound shown here, COc1cccc(Cc2cc(C)cc(=O)n2O)c1 , give the reported Papp. 2.43 10^-7 cm/s

Check O=c1cc(-c2ccccc2)cc(CC2CCCCC2)n1O too. 2.75 10^-6 cm/s

And Cc1cc(Cc2ccccc2-c2ccccc2)n(O)c(=O)c1 ? 2.03 10^-7 cm/s

Query Cc1cc(Cc2cccc3ccccc23)n(O)c(=O)c1 next 6.46 10^-6 cm/s

Please do the same for Cc1cc(Cc2cccc(-c3ccccc3)c2)n(O)c(=O)c1 as well. 1.09 10^-6 cm/s

====

- run_description: Half life in mouse liver microsomes at 2 uM in presence of NADPH by LC/MS/MS analysis
- Assay type: ADME, Microsome
Recorded t1/2 by entry

1. Cc1cc(Cc2ccccc2)n(O)c(=O)c1 < 5 min
2. Cc1cc(Cc2ccccc2-c2ccccc2)n(O)c(=O)c1 < 5 min
3. Cc1cc(C2CCCCCC2)n(O)c(=O)c1 8 min
4. Cc1cc(Cc2ccc(-c3ccccc3)cc2)n(O)c(=O)c1 < 5 min
5. Cc1cc(Cc2cccc3ccccc23)n(O)c(=O)c1 < 5 min

Which t1/2 value belongs to O=c1cc(-c2ccccc2)cc(CC2CCCCC2)n1O ? < 5 min

Item: Cc1cc(CC2CCCCC2)n(O)c(=O)c1 < 5 min

Similarly, COc1cccc(Cc2cc(C)cc(=O)n2O)c1 ? 15 min

Proceed to O=c1cc(-c2ccccc2)cc(C2CCCCC2)n1O < 5 min

# iterate: Cc1cc(Cc2cccc(-c3ccccc3)c2)n(O)c(=O)c1 < 5 min

Continue with Cc1cc(Cc2cccc(OCc3ccccc3)c2)n(O)c(=O)c1 < 5 min

====

- Test system: Human alphaherpesvirus 2
- run_description: Antiviral activity against HSV-2 333vhsB infected in African green monkey Vero cells assessed as inhibition of viral replication by measuring reduction in virus-induced cytopathic effect at 50 uM incubated for 20 hrs by colorimetric analysis
- Format: functional, organism-based
The source made the active and inactive calls. No cut-off for these calls is given here.
metric_name: Activity

1) Cc1cc(C2CCC2)n(O)c(=O)c1 Active
2) O=c1cc(-c2ccccc2)cc(Cc2ccccc2)n1O Active
3) COc1ccc(Cc2cc(C)cc(=O)n2O)cc1 Active

====

- Test system: Vero
- run_description: Cytotoxicity against African green monkey Vero cells assessed as reduction in cell viability incubated for 24 hrs by MTS assay
- experimental_conditions: chlorocebus sabaeus
metric_name: CC50

Look over these answered cases.
1. COc1cccc(Cc2cc(C)cc(=O)n2O)c1 > 100 µM
2. Cc1cc(C2CCCCC2)n(O)c(=O)c1 > 100 µM
3. Cc1cc(Cc2cccc3ccccc23)n(O)c(=O)c1 93.1 µM

Now turn to the next compound.
CC50 lookup needed for Cc1cc(Cc2ccccc2)n(O)c(=O)c1 , thanks. > 100 µM

====

- System: Human alphaherpesvirus 2
- run_description: Antiviral activity against HSV-2 infected in African green monkey Vero cells assessed as inhibition of viral replication by measuring log suppression of virus-induced cytopathic effect at 1 uM incubated for 1 hr followed by washing with PBS and subsequent treatment with compound for 24 hrs by plaque assay
- Format: functional
- experimental_conditions: time 25 hrs
metric_name: log(activity)

compound	log(activity)
Cc1cc(Cc2cccc(Cl)c2)n(O)c(=O)c1	1.82
Cc1cc(Cc2cccc(-c3ccccc3)c2)n(O)c(=O)c1	4.22
O=c1cc(Cc2ccccc2)ccn1O	0.4
Cc1cc(Cc2ccc(OCc3ccccc3)cc2)n(O)c(=O)c1	4.1
Cc1cc(C2CCOCC2)n(O)c(=O)c1	-0.23
O=c1ccc(C2CCCCC2)cn1O	0.67

# query: log(activity) of entry O=c1cc(/C=C/c2ccccc2)cc(Cc2ccccc2)n1O 1.46

Now the same for O=c1cc(-c2ccccc2)cc(C2CCCCC2)n1O 3.73

Same question for Cc1cccc(-c2cc(CC3CCCCC3)n(O)c(=O)c2)c1 please. 3.26

====

t1/2 listing for selected molecules.
- run_description: Half life in human liver microsomes at 2 uM in presence of NADPH by LC/MS/MS analysis
- Format: ADME, Microsome

1. Cc1cc(Cc2ccccc2-c2ccccc2)n(O)c(=O)c1 < 5 min
2. O=c1cc(-c2ccccc2)cc(CC2CCCCC2)n1O < 5 min
3. Cc1cc(Cc2cccc(-c3ccccc3)c2)n(O)c(=O)c1 < 5 min

What does the data say about its t1/2? Entry: Cc1cc(Cc2cccc3ccccc23)n(O)c(=O)c1 < 5 min

Do the same for Cc1cc(Cc2cccc(OCc3ccccc3)c2)n(O)c(=O)c1 please < 5 min

Then this molecule: Cc1cc(CC2CCCCC2)n(O)c(=O)c1 < 5 min

Entry Cc1cc(Cc2ccccc2)n(O)c(=O)c1 please 6 min

====

- run_description: Cytotoxicity against human HepDES19 cells assessed as reduction in cell viability incubated for 72 hrs by MTS assay
- Format: toxicity, cell-based
- experimental_conditions: hepdes19, 72 h
Entries and their measured CC50 follow.
Hi! Could you send only the number? It should be in µM, unit omitted.

// solved cases for CC50 follow
1) Cc1cc(Cc2ccc(Cl)cc2)n(O)c(=O)c1 26
2) Cc1cc(Cc2ccc(-c3ccccc3)cc2)n(O)c(=O)c1 12
3) O=c1c2ccccc2cc(CC2CCCCC2)n1O 49
4) Cc1cc(CC2CCCCC2)n(O)c(=O)c1 28
5) O=c1cc(/C=C/c2ccccc2)cc(CC2CCCCC2)n1O 20
6) O=c1cccc(C2CCCCC2)n1O 22
7) Cc1cc(Cc2ccccc2-c2ccccc2)n(O)c(=O)c1 14
8) Cc1cc(C2CCCCCC2)n(O)c(=O)c1 18

Look at this compound and give its reported CC50. Cc1cccc(-c2cc(CC3CCCCC3)n(O)c(=O)c2)c1 16

Cc1cc(Cc2cccc(-c3ccccc3)c2)n(O)c(=O)c1 ? 24

Would you mind doing O=c1cc(-c2ccccc2)cc(Cc2ccccc2)n1O as well? 18

====

- run_description: Apparent permeability of the compound across apical to basolateral side in human Caco-2 cells at 10 uM incubated for 2 hrs
- Format: ADME, cell-based
- experimental_conditions: caco-2, 2 h
We begin with a simple list: items and their reported Papp.

# count of solved cases: 5
1. Cc1cc(C2CCCCCC2)n(O)c(=O)c1 5.74 10^-6 cm/s
2. Cc1cc(Cc2cccc(OCc3ccccc3)c2)n(O)c(=O)c1 1.37 10^-6 cm/s
3. Cc1cc(Cc2ccccc2)n(O)c(=O)c1 1.44 10^-5cm/s
4. Cc1cc(Cc2ccc(-c3ccccc3)cc2)n(O)c(=O)c1 1.35 10^-6 cm/s
5. Cc1cc(Cc2ccc(OCc3ccccc3)cc2)n(O)c(=O)c1 9.42 10^-7 cm/s

For the next question, use this compound.
Would you mind telling me what Papp value was observed for Cc1cc(CC2CCCCC2)n(O)c(=O)c1 ? 3.14 10^-5cm/s
